The measurements presented in this section are drawn from the supplement of paper PMC6555819.

# Tested on: RARb:RXRa (NR concentration 270 nM, RXRa partner concentration 90 nM)
# Experiment notes: PBM binding z-score (relative to random genomic background probes); higher = stronger binding; sequences stand for … in GC…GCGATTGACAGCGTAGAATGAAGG
Experimental endpoint: PBM binding z-score
# answer = number (no unit)

// solved cases for PBM binding z-score follow
- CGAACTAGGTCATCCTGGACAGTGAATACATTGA: 3.58
- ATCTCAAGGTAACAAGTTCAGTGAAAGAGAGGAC: 2.08
- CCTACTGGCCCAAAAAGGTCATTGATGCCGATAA: 3.99
- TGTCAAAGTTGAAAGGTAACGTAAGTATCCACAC: 2.15
- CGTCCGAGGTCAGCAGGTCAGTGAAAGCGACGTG: 5.15
- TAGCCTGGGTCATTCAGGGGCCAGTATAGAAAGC: 3.35
- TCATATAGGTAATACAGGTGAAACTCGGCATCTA: 0.809
- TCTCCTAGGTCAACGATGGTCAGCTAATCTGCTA: 4.28

// PBM binding z-score value for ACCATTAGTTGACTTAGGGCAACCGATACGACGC : 0.973

Input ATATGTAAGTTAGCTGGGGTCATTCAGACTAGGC . Output PBM binding z-score: 2.47

Form: sequence = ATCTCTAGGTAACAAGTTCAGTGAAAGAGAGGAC ; PBM binding z-score = 1.85

The recorded PBM binding z-score for entry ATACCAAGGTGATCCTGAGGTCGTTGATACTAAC equals 1.39

PBM binding z-score in this record for TTACCAAGGTGAAGGTCGATGATCCCTCTGTAGA : 2.11

Kindly note the recorded PBM binding z-score for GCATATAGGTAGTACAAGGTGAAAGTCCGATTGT , which is 0.368

Documented PBM binding z-score of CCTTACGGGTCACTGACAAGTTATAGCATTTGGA : 3.81

----------
# Test system: RARb homodimer (NR concentration 270 nM)
# Experiment notes: PBM binding z-score (relative to random genomic background probes); higher = stronger binding; sequences stand for … in GC…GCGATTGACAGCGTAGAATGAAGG
# PBM binding z-score >= 1 gives condition met, anything below gives condition not met

Consider the worked cases shown below.
• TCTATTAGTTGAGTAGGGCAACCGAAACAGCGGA = condition not met
• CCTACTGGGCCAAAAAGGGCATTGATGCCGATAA = condition met
• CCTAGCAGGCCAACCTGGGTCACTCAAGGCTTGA = condition met
• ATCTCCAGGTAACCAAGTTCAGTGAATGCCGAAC = condition met
• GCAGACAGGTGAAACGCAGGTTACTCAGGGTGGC = condition not met

PBM binding z-score >= 1 for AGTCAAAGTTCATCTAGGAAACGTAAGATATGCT ?
condition met

Could you tell me if the measured PBM binding z-score of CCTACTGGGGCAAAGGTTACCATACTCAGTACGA reaches 1 or more?
condition met

----------
# Tested on: FXR:RXRa (NR concentration 270 nM, RXRa partner concentration 90 nM)
# Experiment notes: PBM binding z-score (relative to random genomic background probes); higher = stronger binding; sequences stand for … in GC…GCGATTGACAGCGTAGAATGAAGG
Would you mind sorting the entries by PBM binding z-score according to these classes? bin 1 = under 0.8, bin 2 = from 0.8 up to 5, bin 3 = 5 and over

* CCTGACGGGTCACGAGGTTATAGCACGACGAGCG | bin 3

Which PBM binding z-score band matches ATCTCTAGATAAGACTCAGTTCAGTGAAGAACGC ?
bin 1

Which of the defined bands does the recorded PBM binding z-score of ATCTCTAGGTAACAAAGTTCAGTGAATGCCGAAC sit within?
bin 2

// bin(item) where item = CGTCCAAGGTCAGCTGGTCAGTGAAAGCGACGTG
bin 3

Assign a bin to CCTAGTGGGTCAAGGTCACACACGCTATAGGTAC
bin 3

Category lookup for the sequence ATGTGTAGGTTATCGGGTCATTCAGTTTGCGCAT
bin 2

Looking at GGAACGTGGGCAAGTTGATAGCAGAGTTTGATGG , which class would you pick?
bin 1
